test system: Saccharomyces cerevisiae; experiment: transcriptional activation domain activity (GFP:mCherry ratio, weighted mean of sorted bins, harmonized to initial dataset scale) (arbitrary fluorescence ratio units); higher = stronger transcriptional activation; settings: beta-estradiol 1 µM; induction time 4 h
Listed here are sequences together with their documented transcriptional activation domain activity.
Reply: number alone, nothing else.

Quickly give me recorded transcriptional activation domain activity for `MSLLWIYFLSFFPFFCQNLTLLCFYAHIWTLRITPTFVLAFHLVYPLIIHLPV`
27100

Quickly give me recorded transcriptional activation domain activity for `PPPHLQLIYSCKAVRSSIQIFFDRAFIFKCSSSLWVCIVMFSRWLRTIRLFVW`
85600

Quickly give me recorded transcriptional activation domain activity for `SKDARETNPEGEEIEKQRRKKRSREEKEDNERSSRKRRSSRSRSPRRQKEKAN`
30900

Quickly give me recorded transcriptional activation domain activity for `MLYLCFLISFYSLCFLFSYFFNFVLDILFFYYFIIFLFSYFSIFLFSYFLICL`
54300

Quickly give me recorded transcriptional activation domain activity for `VADVMLQRSTLVIGYCLVITIICCSVFLLYSMDFLSSCISFIWIGMVTLMICL`
41500
